Sourced from patent US20240043427A1

- system_under_test: CD73 (Homo sapiens (Human), UniProt P21589)
- Sequence (P21589 27-574): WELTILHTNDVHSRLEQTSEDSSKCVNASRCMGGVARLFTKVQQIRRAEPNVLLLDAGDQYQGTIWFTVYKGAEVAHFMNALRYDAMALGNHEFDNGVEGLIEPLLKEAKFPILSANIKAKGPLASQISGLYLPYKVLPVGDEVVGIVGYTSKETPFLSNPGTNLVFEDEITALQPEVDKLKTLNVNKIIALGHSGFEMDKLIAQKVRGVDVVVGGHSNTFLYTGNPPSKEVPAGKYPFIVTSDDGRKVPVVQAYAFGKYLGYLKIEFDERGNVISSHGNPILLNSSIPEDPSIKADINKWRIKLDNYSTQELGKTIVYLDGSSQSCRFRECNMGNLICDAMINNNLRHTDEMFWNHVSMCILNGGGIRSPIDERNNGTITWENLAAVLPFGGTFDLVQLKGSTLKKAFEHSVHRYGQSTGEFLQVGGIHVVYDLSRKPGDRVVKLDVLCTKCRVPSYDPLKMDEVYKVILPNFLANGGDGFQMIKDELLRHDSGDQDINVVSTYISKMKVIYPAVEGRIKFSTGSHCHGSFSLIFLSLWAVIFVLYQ
- experimental_details: MDA-MB-231 Cell Based CD73 Activity Assay (DMEM)
- study_conditions: MDA-MB-231-GFP cells, DMEM medium with 10% human plasma, 200 uM AMP
pEC50: −log10 of the molar value.
measurement_name: pEC50

Asked: Given C[C@@H]1CN(c2cc(-c3c[nH]c(=O)[nH]c3=O)nn3c(Cl)cnc23)CC1(F)F [Example 521] , respond with its pEC50.
Given back: 6.65

1 = O=c1[nH]cc(-c2cc([C@H]3C[C@@H]3c3cc4c(cn3)cnn4CC(F)(F)F)c3nccn3n2)c(=O)[nH]1 [Example 636]
2 = N#Cc1ccc(OC2CN(c3cc(-c4c[nH]c(=O)[nH]c4=O)nn4ccnc34)CC2(F)F)cc1 (stereo not drawn) [Example 231]
3 = O=c1[nH]cc(-c2cc(N3CC4CC4C3)c3nccn3n2)c(=O)[nH]1 (stereo not drawn) [Example 225]
Asked: Arrange items by their pEC50 values in increasing order. Your answer should be the labels, listed in the requested order.
Given back: 3, 2, 1

----------
- system_under_test: CD73 (Homo sapiens (Human))
- experimental_details: MDA-MB-231 Cell Based CD73 Activity Assay (DMEM)
- study_conditions: MDA-MB-231-GFP cells, DMEM medium with 10% human plasma, 200 uM AMP
measurement_name: EC50 (nM)

Asked: Given Cc1nc2c(N3CC(C)(C)C(F)(F)C3)cc(-c3c[nH]c(=O)[nH]c3=O)nn2c1F [Example 422] , respond with its EC50.
Given back: 155

Asked: Given O=c1[nH]cc(-c2cc(N3CC4CCCCC43)c3nccn3n2)c(=O)[nH]1 (stereo not shown) [Example 451] , respond with its EC50.
Given back: 167

Asked: Given N#Cc1ccnc(O[C@H]2CN(c3cc(-c4c[nH]c(=O)[nH]c4=O)nn4ccnc34)CC2(F)F)c1 [Example 342] , respond with its EC50.
Given back: 3.82

P = O=c1[nH]cc(-c2cc([C@H]3C[C@@H]3c3cccnc3)c3nccn3n2)c(=O)[nH]1 [Example 162]
Q = O=c1[nH]cc(-c2cc([C@H]3C[C@@H]3c3cc(C(F)(F)F)c4ncccc4c3)c3nccn3n2)c(=O)[nH]1 [Example 135]
Asked: Two entries are listed, P and Q . Which one carries the higher EC50? Indicate your choice by writing its label.
Given back: Q
(Q: 44 nM, P: 4.41 nM)

a = Cc1cc([C@H]2C[C@@H]2c2cc(-c3c[nH]c(=O)[nH]c3=O)nn3ccnc23)cc2c1cnn2CC(F)(F)F [Example 714]
b = O=c1[nH]cc(-c2cc([C@H]3C[C@@H]3c3ccc4onc(C(F)(F)F)c4c3)c3nccn3n2)c(=O)[nH]1 (racemic) [Example 327]
Asked: Two entries are listed, a and b . Which one carries the higher EC50? Indicate your choice by writing its label.
Given back: b

----------
- system_under_test: UniProt P21589
- experimental_details: MDA-MB-231 Cell Based CD73 Activity Assay (DMEM)
- study_conditions: MDA-MB-231-GFP cells, DMEM medium with 10% human plasma, 200 uM AMP
measurement_name: EC50 (µM)

Some compounds with recorded EC50:
Asked: Given CC1(C)CN(c2cc(-c3c[nH]c(=O)[nH]c3=O)nn3cc(C4(C(F)(F)F)CC4)nc23)CC1(F)F [Example 441] , respond with its EC50.
Given back: 0.239

Asked: Given O=c1[nH]cc(-c2cc([C@H]3C[C@@H]3c3ccc4c(C(F)(F)F)nn(CC(F)(F)F)c4c3)c3ncc(F)n3n2)c(=O)[nH]1 [Example 329] , respond with its EC50.
Given back: 0.00071

1 = O=c1[nH]cc(-c2cc([C@H]3C[C@@H]3c3cc4c(cnn4CC(F)(F)F)cc3F)c3nccn3n2)c(=O)[nH]1 [Example 595]
2 = O=c1[nH]cc(-c2cc(N3CC[C@H](OC(F)F)C3)c3nccn3n2)c(=O)[nH]1 [Example 348]
3 = CC1(C)C(=O)N(CC(F)(F)F)c2cc([C@H]3C[C@@H]3c3cc(-c4c[nH]c(=O)[nH]c4=O)nn4ccnc34)ccc21 [Example 703]
4 = O=c1[nH]cc(-c2cc([C@H]3C[C@@H]3c3ccccc3Cl)c3nccn3n2)c(=O)[nH]1 (racemic) [Example 555]
5 = Cn1ccnc1C(F)(F)COc1cc(-c2c[nH]c(=O)[nH]c2=O)nn2ccnc12 [Example 693]
Asked: Ranking field: EC50; order: falling. Your answer should be the labels, listed in the requested order.
Given back: 4, 2, 5, 1, 3
(4: 0.267 µM, 2: 0.121 µM, 5: 0.0494 µM, 1: 0.00052 µM, 3: 0.00014 µM)

a = O=c1[nH]cc(-c2cc(N3CC(F)C4(CC4)C3)n3nccc3n2)c(=O)[nH]1 (stereo not drawn) [Example 147]
b = CC1(C#N)CCN(c2cc(-c3c[nH]c(=O)[nH]c3=O)nn3ccnc23)C1 (stereo not drawn) [Example 649]
c = O=c1[nH]cc(-c2cc(N3CCCCCC3)c3nccn3n2)c(=O)[nH]1 [Example 483]
d = O=c1[nH]cc(-c2cc(N3CCC(Oc4ccccc4)C3)c3nccn3n2)c(=O)[nH]1 (stereo not drawn) [Example 242]
Asked: Ranking field: EC50; order: falling. Your answer should be the labels, listed in the requested order.
Given back: c, a, b, d
(c: 0.566 µM, a: 0.0961 µM, b: 0.0217 µM, d: 0.00243 µM)

1 = CC1(C)CCN(c2cc(-c3c[nH]c(=O)[nH]c3=O)nn3ccnc23)C1 [Example 72]
2 = O=c1[nH]cc(-c2cc(OCCC(F)(F)F)c3nccn3n2)c(=O)[nH]1 [Example 681]
Asked: Min EC50? 1 | 2 Indicate your choice by writing its label.
Given back: 1
